Quick record of MIC values for Listeria monocytogenes.

// known answers, use as guide
CCNc1nc(SCC)nc2ccccc12 | ≥ 100 µg/mL
CCSc1nc(NC)c2ccccc2n1 | ≥ 100 µg/mL
CCSc1nc(NC)c2cccc(F)c2n1 | ≥ 100 µg/mL

Input: Which measured MIC value corresponds to CO[C@H]1/C=C/O[C@@]2(C)Oc3c(C)c(O)c4c(O)c(c(/C=N/N5CCN(C)CC5)c(O)c4c3C2=O)NC(=O)/C(C)=C\C=C\[C@H](C)[C@H](O)[C@@H](C)[C@@H](O)[C@@H](C)[C@H](OC(C)=O)[C@@H]1C [RIF, rifampicin, reference compound] ?
Output: 0.6 µg/mL

###

- Condition context: microsomes
Endpoint label: Human microsome stability, clearance class

CCSc1nc(NC)c2cccc(F)c2n1 | medium
CCSc1nc(NC)c2ccccc2n1 | high
CCSc1nc(NC)c2ccc(F)c(F)c2n1 | medium
CCNc1nc(SCC)nc2ccccc12 | high

###

- Tested on: HepG2 cells
- Assay type: cell-based, Human
- Condition context: Toxic dose that inhibits 99% of cell growth; 3 days
Endpoint label: HepG2 TD99 (µg/mL)
Numbers only, in µg/mL.

CCNc1nc(SCC)nc2ccccc12 | 26

Read the next record carefully.
Input: Which measured HepG2 TD99 value corresponds to `CCSc1nc(NC)c2ccccc2n1` ?
Output: 53

###

- Tested on: Mycobacterium bovis BCG Pasteur
- Procedure text: microbe, parasite or virus in culture
- Type: cell-based
- Condition context: Mycobacterium tuberculosis variant bovis BCG
Endpoint label: MIC

CCNc1nc(SCC)nc2ccccc12 | 0.8 µg/mL

Below are 3 compounds. Give each one its MIC.
1. CCSc1nc(NC)c2ccccc2n1
2. CO[C@H]1/C=C/O[C@@]2(C)Oc3c(C)c(O)c4c(O)c(c(/C=N/N5CCN(C)CC5)c(O)c4c3C2=O)NC(=O)/C(C)=C\C=C\[C@H](C)[C@H](O)[C@@H](C)[C@@H](O)[C@@H](C)[C@H](OC(C)=O)[C@@H]1C [RIF, rifampicin, reference compound]
3. CCSc1nc(NC)c2cccc(F)c2n1

Output:
1. 0.9 µg/mL
2. 0.0008 µg/mL
3. 1.6 µg/mL

###

Quick record of MIC values for Micrococcus luteus.

Below are 4 compounds. Give each one its MIC.
1. CO[C@H]1/C=C/O[C@@]2(C)Oc3c(C)c(O)c4c(O)c(c(/C=N/N5CCN(C)CC5)c(O)c4c3C2=O)NC(=O)/C(C)=C\C=C\[C@H](C)[C@H](O)[C@@H](C)[C@@H](O)[C@@H](C)[C@H](OC(C)=O)[C@@H]1C [RIF, rifampicin, reference compound]
2. CCNc1nc(SCC)nc2ccccc12
3. CCSc1nc(NC)c2cccc(F)c2n1
4. CCSc1nc(NC)c2ccccc2n1

Output:
1: 0.2 µg/mL; 2: ≥ 100 µg/mL; 3: ≥ 100 µg/mL; 4: ≥ 100 µg/mL

###

Quick record of MIC values for Bacillus subtilis.

// known answers, use as guide
CCSc1nc(NC)c2cccc(F)c2n1 [Compound 11626252] | ≥ 100 µg/mL
CCNc1nc(SCC)nc2ccccc12 [Compound 11626142] | ≥ 100 µg/mL
CCSc1nc(NC)c2ccccc2n1 [Compound 11626141] | ≥ 100 µg/mL

Input: Which measured MIC value corresponds to CO[C@H]1/C=C/O[C@@]2(C)Oc3c(C)c(O)c4c(O)c(c(/C=N/N5CCN(C)CC5)c(O)c4c3C2=O)NC(=O)/C(C)=C\C=C\[C@H](C)[C@H](O)[C@@H](C)[C@@H](O)[C@@H](C)[C@H](OC(C)=O)[C@@H]1C [RIF, rifampicin, reference compound] ?
Output: 0.3 µg/mL

###

Quick record of MIC values for Mycobacteroides abscessus subsp. massiliense 2005–0484.

CCSc1nc(NC)c2cccc(F)c2n1 | ≥ 100 µg/mL
CCSc1nc(NC)c2ccccc2n1 | ≥ 100 µg/mL
CO[C@H]1/C=C/O[C@@]2(C)Oc3c(C)c(O)c4c(O)c(c(/C=N/N5CCN(C)CC5)c(O)c4c3C2=O)NC(=O)/C(C)=C\C=C\[C@H](C)[C@H](O)[C@@H](C)[C@@H](O)[C@@H](C)[C@H](OC(C)=O)[C@@H]1C [RIF, rifampicin, reference compound] | 9.5 µg/mL

Read the next record carefully.
Input: Which measured MIC value corresponds to `CCNc1nc(SCC)nc2ccccc12` ?
Output: ≥ 100 µg/mL

###

- Tested on: Staphylococcus aureus
I'd be grateful if you could share measured MIC for these entries.

// known answers, use as guide
CCSc1nc(NC)c2cccc(F)c2n1 | ≥ 100 µg/mL
CCNc1nc(SCC)nc2ccccc12 | ≥ 100 µg/mL
CCSc1nc(NC)c2ccccc2n1 | ≥ 100 µg/mL

Read the next record carefully.
Input: Which measured MIC value corresponds to CO[C@H]1/C=C/O[C@@]2(C)Oc3c(C)c(O)c4c(O)c(c(/C=N/N5CCN(C)CC5)c(O)c4c3C2=O)NC(=O)/C(C)=C\C=C\[C@H](C)[C@H](O)[C@@H](C)[C@@H](O)[C@@H](C)[C@H](OC(C)=O)[C@@H]1C [RIF, rifampicin, reference compound] ?
Output: 1.4 µg/mL

###

I'd be grateful if you could share measured microsomal CLint for these entries.
- Procedure text: in vitro
- Condition context: human, microsomes
Answers are plain numbers, in µL/min/mg.

// known answers, use as guide
CCNc1nc(SCC)nc2ccccc12 | 122
CCSc1nc(NC)c2cccc(F)c2n1 | 18.1
CCSc1nc(NC)c2ccccc2n1 | 120

Input: Which measured microsomal CLint value corresponds to `CCSc1nc(NC)c2ccc(F)c(F)c2n1` ?
Output: 28.7
